Assay: Stability in simulated gastric fluid (SGF)
Type: in vitro ADME
Conditions: SGF with pepsin pH 1.2, 37° C., 60 min
recordedEndpoint: SGF (% remain, 60 min) (%)

>>> recordedresult("CC(=O)[C@H]1CC[C@H]2[C@@H]3CC[C@H]4C[C@](C)(OC(=O)CN)CC[C@]4(C)[C@H]3CC[C@]12C")
95
>>> recordedresult("CC(=O)[C@H]1CC[C@H]2[C@@H]3CC[C@H]4C[C@](C)(OC(=O)COC(=O)C(C)(C)OC(=O)CN(CCO)CCO)CC[C@]4(C)[C@H]3CC[C@]12C")
89
>>> recordedresult("COCCOCCOCC(=O)OCO[C@]1(C)CC[C@@]2(C)[C@@H](CC[C@@H]3[C@@H]2CC[C@]2(C)[C@@H](C(C)=O)CC[C@@H]32)C1")
68
>>> recordedresult("CC(=O)[C@H]1CC[C@H]2[C@@H]3CC[C@H]4C[C@](C)(OC(=O)COC(=O)C(C)(C)N)CC[C@]4(C)[C@H]3CC[C@]12C")
97
>>> recordedresult("CCOC(=O)CNCC(=O)O[C@]1(C)CC[C@@]2(C)[C@@H](CC[C@@H]3[C@@H]2CC[C@]2(C)[C@@H](C(C)=O)CC[C@@H]32)C1")
98.4

----------
Test: Pharmacokinetic study with Compound 218 (IV 5 mg/kg, PO 25 mg/kg)
Assay type: in vivo
Details: dog, plasma; analyte Compound 218; IV 5 mg/kg Compound 218; fasted male beagle dogs; mean; read-out: Compound 218 PK C0
recordedEndpoint: C0 (ng/mL)

>>> recordedresult("CC(=O)[C@H]1CC[C@H]2[C@@H]3CC[C@H]4C[C@](C)(OC(=O)COC(=O)C(C)(C)N)CC[C@]4(C)[C@H]3CC[C@]12C")
2750

----------
Assay: in vitro
Format: in vitro ADME, human
Conditions: human liver microsomes 0.5 mg/mL, with NADPH, compound 0.5 μM, 37° C.; read-out: Human Liver Microsomal Stability t1/2
recordedEndpoint: half-life (min)

>>> recordedresult("CC(=O)[C@H]1CC[C@H]2[C@@H]3CC[C@H]4C[C@](C)(OC(=O)COC(=O)CNC(=O)[C@H](C)N)CC[C@]4(C)[C@H]3CC[C@]12C")
192
>>> recordedresult("CC(=O)[C@H]1CC[C@H]2[C@@H]3CC[C@H]4C[C@](C)(OC(=O)CCCN)CC[C@]4(C)[C@H]3CC[C@]12C")
494
>>> recordedresult("CC(=O)[C@H]1CC[C@H]2[C@@H]3CC[C@H]4C[C@](C)(OC(=O)C5CC5C(=O)NCCN(C)C)CC[C@]4(C)[C@H]3CC[C@]12C (stereo partly shown)")
444
>>> recordedresult("CC(=O)COCN(CCO)CC(=O)OC(C)(C)C(=O)OCC(=O)O[C@]1(C)CC[C@@]2(C)[C@@H](CC[C@@H]3[C@@H]2CC[C@]2(C)[C@@H](C(C)=O)CC[C@@H]32)C1")
2.94
>>> recordedresult("CC(=O)[C@H]1CC[C@H]2[C@@H]3CC[C@H]4C[C@](C)(OC(=O)COC(=O)C(C)(C)N)CC[C@]4(C)[C@H]3CC[C@]12C")
14.4
>>> recordedresult("CC(=O)[C@H]1CC[C@H]2[C@@H]3CC[C@H]4C[C@](C)(OC(=O)CNC(C)(C)C(=O)O)CC[C@]4(C)[C@H]3CC[C@]12C")
16
>>> recordedresult("CC(=O)[C@H]1CC[C@H]2[C@@H]3CC[C@H]4C[C@](C)(OC(=O)CO)CC[C@]4(C)[C@H]3CC[C@]12C")
17.4
>>> recordedresult("CCOCCC(=O)OCC(=O)O[C@]1(C)CC[C@@]2(C)[C@@H](CC[C@@H]3[C@@H]2CC[C@]2(C)[C@@H](C(C)=O)CC[C@@H]32)C1")
2.24
>>> recordedresult("CC(=O)[C@H]1CC[C@H]2[C@@H]3CC[C@H]4C[C@](C)(OC(=O)CSC(C)(C)C(=O)NCCN(C)C)CC[C@]4(C)[C@H]3CC[C@]12C")
391
>>> recordedresult("CC(=O)[C@H]1CC[C@H]2[C@@H]3CC[C@H]4C[C@](C)(OC(=O)COC(=O)C(C)(C)OC(=O)CN(CCO)CCO)CC[C@]4(C)[C@H]3CC[C@]12C")
6.2

----------
Below, each entry is listed with its recorded log10 of microsomal CLint.
Experiment: in vitro
Format: in vitro ADME, human
Conditions: human liver microsomes 0.5 mg/mL, with NADPH, compound 0.5 μM; read-out: Human Liver Microsomal Stability CLint (uL/min/mg liver) (converted)
recordedEndpoint: log10 of microsomal CLint (log10 of the value in µL/min/mg)

>>> recordedresult("CC(=O)[C@H]1CC[C@H]2[C@@H]3CC[C@H]4C[C@](C)(OC(=O)COC(=O)C(C)(C)OC(=O)CN(CCCO)CCCO)CC[C@]4(C)[C@H]3CC[C@]12C")
2.42
>>> recordedresult("CC(=O)[C@H]1CC[C@H]2[C@@H]3CC[C@H]4C[C@](C)(OC(=O)COC(=O)[C@H](C)N5CCOCC5)CC[C@]4(C)[C@H]3CC[C@]12C")
2.12
>>> recordedresult("CC(=O)[C@H]1CC[C@H]2[C@@H]3CC[C@H]4C[C@](C)(OCOC(=O)CN5CCOCC5)CC[C@]4(C)[C@H]3CC[C@]12C")
2.74
>>> recordedresult("CC(=O)[C@H]1CC[C@H]2[C@@H]3CC[C@H]4C[C@](C)(OC(=O)CC(C)(C)C(=O)OCCN(C)C)CC[C@]4(C)[C@H]3CC[C@]12C")
1.04
>>> recordedresult("CC(=O)[C@H]1CC[C@H]2[C@@H]3CC[C@H]4C[C@](C)(OC(=O)CNC(=O)CNC(=O)[C@@H](N)C(C)C)CC[C@]4(C)[C@H]3CC[C@]12C")
0.60
>>> recordedresult("CC(=O)[C@H]1CC[C@H]2[C@@H]3CC[C@H]4C[C@](C)(O)CC[C@]4(C)[C@H]3CC[C@]12C")
2.04
>>> recordedresult("CC(=O)[C@H]1CC[C@H]2[C@@H]3CC[C@H]4C[C@](C)(OC(=O)CNCC(C)(C)O)CC[C@]4(C)[C@H]3CC[C@]12C")
1.55
>>> recordedresult("CC(=O)[C@H]1CC[C@H]2[C@@H]3CC[C@H]4C[C@](C)(OC(=O)CCC(=O)O)CC[C@]4(C)[C@H]3CC[C@]12C")
1.24
>>> recordedresult("CC(=O)[C@H]1CC[C@H]2[C@@H]3CC[C@H]4C[C@](C)(OC(=O)CO)CC[C@]4(C)[C@H]3CC[C@]12C")
1.90
>>> recordedresult("CC(=O)[C@H]1CC[C@H]2[C@@H]3CC[C@H]4C[C@](C)(OC(=O)COC(=O)C(C)(C)OC(=O)CN(C)CCCO)CC[C@]4(C)[C@H]3CC[C@]12C")
2.09
>>> recordedresult("CC(=O)[C@H]1CC[C@H]2[C@@H]3CC[C@H]4C[C@](C)(OC(=O)COC(=O)C(C)(C)N)CC[C@]4(C)[C@H]3CC[C@]12C")
1.98
>>> recordedresult("CC(=O)[C@H]1CC[C@H]2[C@@H]3CC[C@H]4C[C@](C)(OC(=O)CSC(C)(C)COC(=O)CN5CCOCC5)CC[C@]4(C)[C@H]3CC[C@]12C")
2.68
>>> recordedresult("CC(=O)[C@H]1CC[C@H]2[C@@H]3CC[C@H]4C[C@](C)(OC(=O)COC(=O)C(C)(C)OC(=O)CN(C)CCO)CC[C@]4(C)[C@H]3CC[C@]12C")
2.42
>>> recordedresult("CC(=O)[C@H]1CC[C@H]2[C@@H]3CC[C@H]4C[C@](C)(OC(=O)CN(C)C(=O)CN5CCOCC5)CC[C@]4(C)[C@H]3CC[C@]12C")
2.00
>>> recordedresult("CC(=O)[C@H]1CC[C@H]2[C@@H]3CC[C@H]4C[C@](C)(OC(=O)CNC(C)(C)COC(=O)CN5CCOCC5)CC[C@]4(C)[C@H]3CC[C@]12C")
2.66

----------
Assay: Pharmacokinetic study with Compound 111 (IV 5 mg/kg, PO 25 mg/kg)
Assay type: in vivo
Settings: dog, plasma; analyte Compound 111; oral 25 mg/kg Compound 111; fasted male beagle dogs; mean; read-out: Compound 111 PK Tmax
recordedEndpoint: Tmax (h)

>>> recordedresult("CC(=O)[C@H]1CC[C@H]2[C@@H]3CC[C@H]4C[C@](C)(OC(=O)CN)CC[C@]4(C)[C@H]3CC[C@]12C")
2.67

----------
Assay: Pharmacokinetic study with Compound 224 (IV 2 mg/kg, PO 10 mg/kg)
Conditions: male, beagle, dog, plasma, Compound 224 PK Vss (L/kg), analyte Compound 224, fasted male beagle dogs, mean
Method: Analysis time points for the IV arm were 0.083, 0.25, 0.5, 1, 2, 4, 8, 12, 24, 36 and 48 hours post dose and analysis time points for the PO arm were 0.25, 0.5, 1, 2, 4, 8, 12, 24, 36 and 48 hours post dose.
recordedEndpoint: Vd

>>> recordedresult("CC(=O)[C@H]1CC[C@H]2[C@@H]3CC[C@H]4C[C@](C)(OC(=O)COC(=O)C(C)(C)O)CC[C@]4(C)[C@H]3CC[C@]12C [Compound 224]")
"5.92 L/kg"
